# IC50 per entry
Molecular target: cytoplasmic domain of the human VEGF receptor (VEGFR-2) (Homo sapiens, UniProt P35968)
Construct: The cytoplasmic domain of the human VEGF receptor (VEGFR-2) was expressed as a Histidine-tagged fusion protein; Histidine tag
Sequence (P35968 786-1356): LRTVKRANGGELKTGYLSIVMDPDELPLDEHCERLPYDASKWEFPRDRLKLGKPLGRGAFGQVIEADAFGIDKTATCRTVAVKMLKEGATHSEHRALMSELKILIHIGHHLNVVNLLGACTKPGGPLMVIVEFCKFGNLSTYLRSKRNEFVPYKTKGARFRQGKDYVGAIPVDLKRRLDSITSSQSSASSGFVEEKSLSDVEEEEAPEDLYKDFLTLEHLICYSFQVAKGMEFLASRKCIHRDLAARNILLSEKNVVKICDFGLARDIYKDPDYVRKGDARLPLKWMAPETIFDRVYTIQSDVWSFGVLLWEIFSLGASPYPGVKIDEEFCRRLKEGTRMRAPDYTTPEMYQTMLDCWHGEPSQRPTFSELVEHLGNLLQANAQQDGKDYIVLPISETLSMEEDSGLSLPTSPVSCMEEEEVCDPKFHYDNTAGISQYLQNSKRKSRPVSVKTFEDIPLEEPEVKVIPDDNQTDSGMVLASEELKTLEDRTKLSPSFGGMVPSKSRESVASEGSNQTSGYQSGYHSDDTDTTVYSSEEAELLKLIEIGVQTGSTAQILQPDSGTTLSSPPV
Experiment: KDR Assay
Conditions: His-VEGFR-2; 3.6 μM ATP
Procedure: The cytoplasmic domain of the human VEGF receptor (VEGFR-2) was expressed as a Histidine-tagged fusion protein following infection of insect cells using an engineered baculovirus. His-VEGFR-2 was purified to homogeneity, as determined by SDS-PAGE, using nickel resin chromatography. […] The reaction was terminated by the addition of 100 μl of 2.5N H2SO4 to each well and read using a microplate ELISA reader set at 492 nm. […]

{"COMPOUND": "O=C1Nc2ccccc2C1=CNc1ccc(N2CCOCC2)c(C(=O)O)c1", "IC50": "0.96 µM"}

Look up cytoplasmic domain of the human VEGF receptor (VEGFR-2) (Homo sapiens, UniProt P35968) data: IC50 of "Cc1cccc2c1C(=CNc1ccc(OC(F)F)cc1)C(=O)N2" , then report it.
0.53 µM

Look up cytoplasmic domain of the human VEGF receptor (VEGFR-2) (Homo sapiens, UniProt P35968) data: IC50 of "Cc1cccc2c1C(=CNc1cccc(N)c1)C(=O)N2" , then report it.
0.17 µM

Look up cytoplasmic domain of the human VEGF receptor (VEGFR-2) (Homo sapiens, UniProt P35968) data: IC50 of "O=C1Nc2ccccc2C1=CNc1ccc(OCCCCN2CCOCC2)cc1" , then report it.
0.24 µM

Look up cytoplasmic domain of the human VEGF receptor (VEGFR-2) (Homo sapiens, UniProt P35968) data: IC50 of "CC(=O)Nc1ccc(NC=C2C(=O)Nc3ccccc32)cc1" , then report it.
0.47 µM

Look up cytoplasmic domain of the human VEGF receptor (VEGFR-2) (Homo sapiens, UniProt P35968) data: IC50 of "O=C1Nc2ccccc2C1=CNc1ccc(NCCCN2CCOCC2)cc1" , then report it.
0.39 µM

Look up cytoplasmic domain of the human VEGF receptor (VEGFR-2) (Homo sapiens, UniProt P35968) data: IC50 of "O=C1Nc2ccc(F)cc2C1=CNc1ccc(N2CCOCC2)cc1" , then report it.
0.19 µM

Look up cytoplasmic domain of the human VEGF receptor (VEGFR-2) (Homo sapiens, UniProt P35968) data: IC50 of "O=C1Nc2ccccc2C1=CNc1ccc2ncsc2c1" , then report it.
0.23 µM

Look up cytoplasmic domain of the human VEGF receptor (VEGFR-2) (Homo sapiens, UniProt P35968) data: IC50 of "COc1ccc(NC=C2C(=O)Nc3ccc(Cl)cc32)cc1OC" , then report it.
0.65 µM

Look up cytoplasmic domain of the human VEGF receptor (VEGFR-2) (Homo sapiens, UniProt P35968) data: IC50 of "CN1CCN(c2ccc(NC=C3C(=O)Nc4cc(F)ccc43)cc2)CC1" , then report it.
0.08 µM

Look up cytoplasmic domain of the human VEGF receptor (VEGFR-2) (Homo sapiens, UniProt P35968) data: IC50 of "Cc1cccc2c1C(=CNc1cccc(S(=O)(=O)NCCCO)c1)C(=O)N2" , then report it.
0.66 µM

Look up cytoplasmic domain of the human VEGF receptor (VEGFR-2) (Homo sapiens, UniProt P35968) data: IC50 of "COc1ccc(NC=C2C(=O)Nc3cccc(C)c32)c(F)c1" , then report it.
7.77 µM

Look up cytoplasmic domain of the human VEGF receptor (VEGFR-2) (Homo sapiens, UniProt P35968) data: IC50 of "CCc1ccc(NC=C2C(=O)Nc3cccc(C)c32)cc1" , then report it.
0.46 µM

Look up cytoplasmic domain of the human VEGF receptor (VEGFR-2) (Homo sapiens, UniProt P35968) data: IC50 of CN1CCCC(COc2ccc(NC=C3C(=O)Nc4ccc(F)cc43)cc2)C1 (centres unmarked) , then report it.
0.33 µM

Look up cytoplasmic domain of the human VEGF receptor (VEGFR-2) (Homo sapiens, UniProt P35968) data: IC50 of "O=C1Nc2cccc(F)c2C1=CNc1ccc(OCCN2CCCCC2)cc1" , then report it.
0.39 µM

Look up cytoplasmic domain of the human VEGF receptor (VEGFR-2) (Homo sapiens, UniProt P35968) data: IC50 of "Cc1ccc(NC=C2C(=O)Nc3ccccc32)cc1C" , then report it.
1.21 µM

Look up cytoplasmic domain of the human VEGF receptor (VEGFR-2) (Homo sapiens, UniProt P35968) data: IC50 of "NS(=O)(=O)c1ccc(NC=C2C(=O)Nc3ccc(Cl)cc32)cc1" , then report it.
0.98 µM

Look up cytoplasmic domain of the human VEGF receptor (VEGFR-2) (Homo sapiens, UniProt P35968) data: IC50 of "COc1ccc(NC=C2C(=O)Nc3cccc(C)c32)cc1OC" , then report it.
0.34 µM

Look up cytoplasmic domain of the human VEGF receptor (VEGFR-2) (Homo sapiens, UniProt P35968) data: IC50 of "CC(=O)Nc1ccc(NC=C2C(=O)Nc3ccc(Cl)cc32)cc1" , then report it.
0.92 µM

Look up cytoplasmic domain of the human VEGF receptor (VEGFR-2) (Homo sapiens, UniProt P35968) data: IC50 of "CC(C)(C)OC(=O)Nc1ccc(NC=C2C(=O)Nc3ccccc32)cc1" , then report it.
0.89 µM
